# Target Entity: bovine cardiac myosin (Bos taurus (Bovine))
# Sequence (Q9BE39 whole entry): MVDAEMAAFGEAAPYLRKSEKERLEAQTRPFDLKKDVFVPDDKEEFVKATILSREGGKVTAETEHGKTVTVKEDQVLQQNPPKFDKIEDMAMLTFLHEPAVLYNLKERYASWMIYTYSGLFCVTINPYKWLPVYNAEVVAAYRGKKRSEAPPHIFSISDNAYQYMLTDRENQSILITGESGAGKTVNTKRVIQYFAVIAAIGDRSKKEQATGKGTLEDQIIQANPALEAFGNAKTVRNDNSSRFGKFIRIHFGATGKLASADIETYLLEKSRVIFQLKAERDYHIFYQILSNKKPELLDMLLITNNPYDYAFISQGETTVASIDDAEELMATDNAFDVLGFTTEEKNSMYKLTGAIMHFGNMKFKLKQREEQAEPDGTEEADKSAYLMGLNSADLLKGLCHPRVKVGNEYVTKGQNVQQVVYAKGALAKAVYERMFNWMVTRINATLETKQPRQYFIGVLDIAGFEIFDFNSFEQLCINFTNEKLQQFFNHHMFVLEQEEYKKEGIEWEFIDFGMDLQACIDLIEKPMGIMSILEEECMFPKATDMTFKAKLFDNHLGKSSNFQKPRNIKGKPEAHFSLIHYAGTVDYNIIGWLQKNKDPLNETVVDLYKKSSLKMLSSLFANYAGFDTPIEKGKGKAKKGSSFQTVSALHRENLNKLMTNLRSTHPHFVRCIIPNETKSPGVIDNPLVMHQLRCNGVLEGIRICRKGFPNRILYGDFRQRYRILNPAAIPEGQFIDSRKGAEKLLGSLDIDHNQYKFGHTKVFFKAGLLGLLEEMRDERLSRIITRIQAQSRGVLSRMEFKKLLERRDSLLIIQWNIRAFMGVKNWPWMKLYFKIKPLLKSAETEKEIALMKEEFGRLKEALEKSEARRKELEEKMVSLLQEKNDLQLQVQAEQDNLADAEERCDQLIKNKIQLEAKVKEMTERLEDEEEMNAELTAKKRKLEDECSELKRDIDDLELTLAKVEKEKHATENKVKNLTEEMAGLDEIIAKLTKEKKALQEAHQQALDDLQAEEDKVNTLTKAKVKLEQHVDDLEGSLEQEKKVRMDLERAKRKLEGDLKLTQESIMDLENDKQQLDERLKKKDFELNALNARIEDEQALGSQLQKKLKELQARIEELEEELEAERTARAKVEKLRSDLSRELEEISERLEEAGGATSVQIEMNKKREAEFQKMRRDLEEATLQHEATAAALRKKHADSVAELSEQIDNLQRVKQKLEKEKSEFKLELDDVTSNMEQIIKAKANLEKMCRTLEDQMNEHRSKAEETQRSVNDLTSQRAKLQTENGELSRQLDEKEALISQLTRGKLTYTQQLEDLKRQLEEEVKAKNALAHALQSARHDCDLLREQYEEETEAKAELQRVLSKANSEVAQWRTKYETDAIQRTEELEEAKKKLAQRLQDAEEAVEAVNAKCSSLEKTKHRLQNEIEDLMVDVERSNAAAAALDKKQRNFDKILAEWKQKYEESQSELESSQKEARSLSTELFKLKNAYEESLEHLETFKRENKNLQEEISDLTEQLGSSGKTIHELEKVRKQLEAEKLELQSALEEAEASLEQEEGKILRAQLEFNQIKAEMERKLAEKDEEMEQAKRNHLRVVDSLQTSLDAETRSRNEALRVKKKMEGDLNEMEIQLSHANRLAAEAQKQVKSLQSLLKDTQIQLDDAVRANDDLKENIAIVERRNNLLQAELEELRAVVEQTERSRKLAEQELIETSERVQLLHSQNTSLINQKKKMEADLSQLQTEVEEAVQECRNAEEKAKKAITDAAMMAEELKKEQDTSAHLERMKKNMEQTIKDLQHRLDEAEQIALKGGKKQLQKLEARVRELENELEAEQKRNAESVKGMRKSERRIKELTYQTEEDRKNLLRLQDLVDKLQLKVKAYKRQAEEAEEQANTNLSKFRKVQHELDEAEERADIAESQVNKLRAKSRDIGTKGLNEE
# Sequence (P85100 whole entry partner): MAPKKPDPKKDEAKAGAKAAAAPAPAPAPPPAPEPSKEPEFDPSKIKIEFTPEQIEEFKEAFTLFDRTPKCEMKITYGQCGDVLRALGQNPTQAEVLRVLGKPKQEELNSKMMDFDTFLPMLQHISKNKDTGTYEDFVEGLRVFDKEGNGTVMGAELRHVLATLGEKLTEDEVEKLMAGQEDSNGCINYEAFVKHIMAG
# Sequence (Q3SZE5 whole entry partner): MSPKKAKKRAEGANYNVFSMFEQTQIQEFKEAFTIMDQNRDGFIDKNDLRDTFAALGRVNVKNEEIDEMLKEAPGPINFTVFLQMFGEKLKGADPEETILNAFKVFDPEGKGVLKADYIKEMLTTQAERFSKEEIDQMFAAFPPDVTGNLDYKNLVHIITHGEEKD
# Protocol Description: Myosin inhibitory potency: PK/LDH-coupled ATPase assay on bovine skinned cardiac myofibrils
# Cond: pCa=6.25, 50 μM ATP, 25° C., read-out: myosin inhibition activity IC50
I'd appreciate it if you could supply pIC50 values for the items below.
Numbers only, as −log10 of the molar value.

`CC(C)n1c(=O)nc(N[C@@H](C)c2cccc(C3CCOCC3)c2)[nH]c1=O` yielded pIC50 of 5.87

`Cc1cccc([C@H](C)Nc2nc(=O)n([C@H]3CCOC[C@H]3F)c(=O)[nH]2)c1` yielded pIC50 of 5.91

`C[C@H](Nc1nc(=O)n(C2CCOCC2)c(=O)[nH]1)c1cccc(-c2ccncc2)c1` yielded pIC50 of 5.60

List the reported pIC50 of each compound below.
1. CC(Nc1nc(=O)n(C2CCNCC2)c(=O)[nH]1)c1ccccc1F (centres unmarked)
2. O=c1nc(N[C@H](c2ccc(F)cc2F)C(F)F)[nH]c(=O)n1C1CCOCC1
3. C[C@@H](Nc1nc(=O)n(C2CCOCC2)c(=O)[nH]1)c1ccc(C2CC2)cc1
4. C[C@H](Nc1nc(=O)n(C2CCNCC2)c(=O)[nH]1)C1CCCCC1
5. C[C@H](Nc1nc(=O)n([C@@H](C)C(F)(F)F)c(=O)[nH]1)c1ccc(OC(F)(F)F)cc1

Return:
1. 5.33
2. 5.64
3. 6.15
4. 5.78
5. 5.56

List the reported pIC50 of each compound below.
1. C[C@H](Nc1nc(=O)n(C2(C)CCC2)c(=O)[nH]1)C1CCCCC1
2. CC(C)n1c(=O)nc(N[C@H](c2ccc(F)cc2F)C(F)F)[nH]c1=O

Return:
1. 5.06
2. 5.53

List the reported pIC50 of each compound below.
1. C[C@H](Nc1nc(=O)n(CC(F)(F)F)c(=O)[nH]1)C1CCCCC1
2. C[C@H](Nc1nc(=O)n(C2CCOCC2)c(=O)[nH]1)c1cccc(C2=CCOCC2)c1
3. Cc1cc([C@H](C)Nc2nc(=O)n(C(C)C)c(=O)[nH]2)ccc1F
4. C[C@H](Nc1nc(=O)n(C2CCCC2)c(=O)[nH]1)C1CCCCC1
5. C[C@H](Nc1nc(=O)n(C2CCOCC2)c(=O)[nH]1)c1cccc(C2CN(CC(F)(F)F)C2)c1
6. C[C@H](Nc1nc(=O)n([C@H]2CC[C@@H](F)CC2)c(=O)[nH]1)C1CCCCC1
7. C[C@H](O)c1cccc([C@H](C)Nc2nc(=O)n(C3CCOCC3)c(=O)[nH]2)c1

Return:
[6.16, 5.80, 6.02, 5.31, 6.44, 5.74, 6.26]

###

# Protocol Description: Pharmacokinetic profiles in male SD rats (IV and PO)
# Format: in vivo, rat
# Cond: rat, plasma, IV 1 mg/kg, PO 5 mg/kg, route for this parameter not given
I'd appreciate it if you could supply half-life values for the items below.
Answers are plain numbers, in min.

Example entries begin here.
`C[C@H](Nc1nc(=O)n(C2CCOCC2)c(=O)[nH]1)c1ccc(F)cc1Cl` yielded half-life of 224

`C[C@H](Nc1nc(=O)n(C2CCOCC2)c(=O)[nH]1)c1ccc(Cl)c(Cl)c1` yielded half-life of 275

List the reported half-life of each compound below.
1. C[C@H](Nc1nc(=O)n(C2CCOCC2)c(=O)[nH]1)c1ccc(F)cc1F
2. Cc1cc([C@H](C)Nc2nc(=O)n(C3CCOCC3)c(=O)[nH]2)ccc1F
3. Cc1cccc([C@H](C)Nc2nc(=O)n(C3CCOCC3)c(=O)[nH]2)c1
4. C[C@H](Nc1nc(=O)n(C2CCOCC2)c(=O)[nH]1)c1cccc(C(F)(F)F)c1
5. Cc1ccc([C@H](C)Nc2nc(=O)n(C3CCOCC3)c(=O)[nH]2)c(C)c1
6. C[C@H](Nc1nc(=O)n(C2CCOCC2)c(=O)[nH]1)c1cc(F)cc(Cl)c1

Return:
271
328
201
265
233
237
